// provenance: ChEMBL document CHEMBL3988442

# target.of.assay: Aspartate--tRNA(Asp/Asn) ligase (Mycobacterium tuberculosis (strain ATCC 25618 / H37Rv)) (UniProt P9WFW3); note: in the data most compounds retested in dose-response had high values
# Sequence (P9WFW3 whole entry): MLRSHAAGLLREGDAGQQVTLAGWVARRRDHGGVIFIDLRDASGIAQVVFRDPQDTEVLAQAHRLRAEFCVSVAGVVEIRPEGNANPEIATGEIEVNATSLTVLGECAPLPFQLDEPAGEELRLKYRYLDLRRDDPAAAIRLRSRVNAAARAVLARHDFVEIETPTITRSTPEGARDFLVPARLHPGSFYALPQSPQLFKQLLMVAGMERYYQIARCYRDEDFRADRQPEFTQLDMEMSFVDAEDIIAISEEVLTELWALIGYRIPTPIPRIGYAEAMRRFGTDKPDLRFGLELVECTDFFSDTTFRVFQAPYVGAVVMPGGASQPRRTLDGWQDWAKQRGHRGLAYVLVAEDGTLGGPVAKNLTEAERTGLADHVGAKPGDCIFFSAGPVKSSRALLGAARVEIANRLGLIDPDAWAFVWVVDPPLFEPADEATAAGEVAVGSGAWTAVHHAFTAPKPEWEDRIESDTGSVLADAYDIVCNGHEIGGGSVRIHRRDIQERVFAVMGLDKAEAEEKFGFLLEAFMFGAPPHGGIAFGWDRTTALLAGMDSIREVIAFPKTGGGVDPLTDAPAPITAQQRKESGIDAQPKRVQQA
# assay.text: Assay for Asp RNA synthetase-1 from Mycobacterium tuberculosis
# Format: functional
# Set-up: scale not given: direction of the effect not stated beside the values
# condition.summary: 30 µM
Percent Effect reference
Only the number, expressed in %, is required.

Solved cases (6 shown):
- O=C(Cc1c(F)cccc1F)N1CCN(CC(=O)N2CCCC2)CC1: -5.83
- CCc1n[nH]c(C2CN(C(=O)c3cnc[nH]3)CCO2)n1 (stereo unspecified): -1.76
- CN(C)S(=O)(=O)N1C[C@@H](Oc2ccccn2)[C@H]2OCCC[C@H]21: 2.06
- Cn1cc(C(=O)N2CCCC(Cc3nccs3)C2)cn1 (stereo unspecified): 2.4
- O=C(C1SCCc2sccc21)N1CCC(O)CC1 (stereo unspecified): 5.25
- O=C(c1ccc(O)cc1)N1CCN(C(=O)c2ccc3c(c2)COC3)CC1: -1.8

The compound identified as `Cc1ccc(S(=O)(=O)N2CCOc3ccccc32)cc1C(N)=O` registered its Percent Effect at 0.611

For reference, reported Percent Effect for `Cc1ccc(N2CCO[C@H]3CN(Cc4cnn(C)c4)C[C@H]32)nn1` stands at -2.15

The measured Percent Effect associated with `CC(=O)N1CCC[C@H]1C(=O)NCCOc1cccc(Cl)c1` reads 1.97

Value of measured Percent Effect for the entry CCCc1nc(CN2CCN(CC(O)c3ccccc3)CC2)no1 (stereo unspecified) : -4

Form field Percent Effect, entry Cc1cncc(C(=O)N2CCCCC2c2nc(C)cs2)c1 (stereo unspecified) : -9.59

* * *

# target.of.assay: Shiga toxin 2 (Escherichia coli O157:H7) (UniProt P09385+P09386)
# assay.text: E. coli 0.157:H7 Shiga Toxin SOP - stx2 screening assay
# Format: functional
# Parameters: scale not given: direction of the effect not stated beside the values
# condition.summary: 30 µM
parameter: Percent Effect (%)
Your answer is read as %, so omit the unit and give the number.

* CCOCC(O)CN1CCN(C(=O)c2ccccc2Cl)CC1 (configuration not stated) | 24.8
* CCc1n[nH]c(C2CN(Cc3nnc(C4CC4)n3C)CCO2)n1 (configuration not stated) | 9.55
* CN(C)c1cc(CNC(=O)c2ccc(F)cc2F)ccn1 | -51.7

The reported value for `Cc1cccc(COC[C@]23COC[C@H]2CN(C(=O)c2ccsc2)C3)n1` in terms of Percent Effect is 7.59

// Percent Effect value for `Cc1ccc(CNC(=O)NCc2csc(C)n2)cn1` : -8.48

* * *

# target.of.assay: Shiga toxin 2 (Escherichia coli O157:H7) (UniProt P09385+P09386)
# assay.text: E. coli 0.157:H7 Shiga Toxin SOP - stx2 screening assay
# Assay type: functional
# Set-up: scale not given: direction of the effect not stated beside the values
# condition.summary: 30 µM
parameter: Percent Effect (%)
Numeric only. Scale: %

- COc1cccc(CN2CCN(C(=O)CN3CCOCC3)CC2)n1: -2.5
- Cc1nc(C)n(C2CCCN(C(=O)c3csc(C(C)C)n3)C2)n1 (configuration not stated): 4.53
- CC(C)Cc1noc(CN2CCN(CCO)CC2)n1: 25.7

Notebook: CNc1cc(C2CCCN2Cc2ccccc2C(=O)O)ccn1 (configuration not stated) , Percent Effect read as -8.27

In plain terms, CCN1C(=O)CCCC12CCCN(C(=O)c1conc1C)C2 (configuration not stated) has a documented Percent Effect of 1.9

* * *

# target.of.assay: Shiga toxin 2 (Escherichia coli O157:H7) (UniProt P09385+P09386)
# assay.text: E. coli 0.157:H7 Shiga Toxin SOP - stx2 screening assay
# Format: functional
# Parameters: scale not given: direction of the effect not stated beside the values
# condition.summary: 30 µM
# maps each entry to its Percent Effect
Please state the figure in %; there is no need to write the unit.

Known Percent Effect results, listed for orientation:
* CN(C)C(=O)CN1C[C@@H]2CC[C@H](C1)N(Cc1cc(F)ccc1F)C2 | -37.1
* Cc1ccc(=O)n(CC2(O)CCN(Cc3ccsc3)CC2)n1 | 12.7
* COc1ccc(NC(=O)N2CCN(c3ncccn3)CC2)cn1 | -16.1
* O=C(N[C@@H]1CCNC[C@H]1O)c1ccc(F)c(Cl)c1 | 12.3
* Cc1ccc(C2(CN3CCCC3)CCNCC2)nc1 | -12

Test item O=C1NC2(CCN(C(=O)c3ccccc3)CC2)CC1c1cccnc1 (centres undefined) ; Shiga toxin 2 (Escherichia coli O157:H7) (UniProt P09385+P09386); reported Percent Effect was -5.71

Item Fc1ccc2c(c1)C(NCc1nnc3n1CCCCC3)CCCO2 (centres undefined) was tested on Shiga toxin 2 (Escherichia coli O157:H7) (UniProt P09385+P09386); the reported Percent Effect is -12.2

Lab note: molecule O=C1CC2(CCN(Cc3ccccn3)C2)CN1c1cncnc1 (centres undefined) tested on Shiga toxin 2 (Escherichia coli O157:H7) (UniProt P09385+P09386); recorded Percent Effect was -1.07

Param item: `CCN(Cc1ccco1)C(=O)Nc1cc(C(F)(F)F)c[nH]c1=O` ; param system: Shiga toxin 2 (Escherichia coli O157:H7) (UniProt P09385+P09386); output Percent Effect: 34.2

The observed Percent Effect for Cc1nn(C)c(C)c1C1CCCN1Cc1noc(C2CC2)n1 (centres undefined) when tested with Shiga toxin 2 (Escherichia coli O157:H7) (UniProt P09385+P09386) stands at 16.3

Record `COCCN1C[C@@H]2CN(Cc3cccc(C)n3)C[C@@H]2C1=O` / Shiga toxin 2 (Escherichia coli O157:H7) (UniProt P09385+P09386), Percent Effect recorded as -2.04

Shiga toxin 2 (Escherichia coli O157:H7) (UniProt P09385+P09386) data for `Cn1cc(C(=O)Nc2ccc3c(c2)CN(C(=O)c2ccco2)CC3)nn1` ; its Percent Effect: -88.9

* * *

# target.of.assay: Aspartate--tRNA(Asp/Asn) ligase (Mycobacterium tuberculosis (strain ATCC 25618 / H37Rv)); note: in the data most compounds retested in dose-response had high values
# assay.text: Assay for Asp RNA synthetase-1 from Mycobacterium tuberculosis
# Type: functional
# Set-up: scale not given: direction of the effect not stated beside the values
# condition.summary: 30 µM
parameter: Percent Effect (%)
Please give a number only; it is taken to be in %.

Answered cases to consult:
• CC(C)N(C)Cc1cn2c(n1)CN(C(=O)Cc1ccsc1)CC2 = 2.92
• CCCn1cc(C(=O)N(C)Cc2nc(-c3ccccn3)no2)c(C)n1 = -0.218
• Cc1ccc(C(=O)NS(=O)(=O)c2cccc3cnccc23)c(=O)[nH]1 = 1.11
• CCN1CCC(NC(=O)CN2CCc3c(ncn3C)C2)CC1 = -4.88
• CC(=O)NCC(=O)N1CCOC2(CCCN(c3cccnc3)C2)C1 (centres undefined) = 1.34

# Percent Effect (compound: `CCCc1nc(C(=O)N2CCCn3nc(CCC(=O)O)cc3C2)cs1` ) is -2.6

The compound listed as `O=C(NCCc1ccn(-c2ccccc2)n1)N1CCC1` shows Percent Effect equal to 1.53

Percent Effect reported for this compound `CN1N=C(C(=O)NCc2ccc3c(c2)CCCN3C)CCC1=O` : -4.96

Entry `O=C(c1ccn(-c2ccccc2Cl)n1)N1CCSCC1` — recorded Percent Effect = 1.45

Kindly note the recorded Percent Effect for COc1ccc(CCN2CCCC2Cn2nc(C)nc2C)cc1 (centres undefined) , which is -3.2

Quick note, Percent Effect for `O=C(C1CCOCC1)N1CCO[C@H]2[C@@H](OCc3ccncc3)CC[C@@H]21` landed at -4.8

* * *

# target.of.assay: Shiga toxin 2 (Escherichia coli O157:H7) (UniProt P09385+P09386)
# assay.text: E. coli 0.157:H7 Shiga Toxin SOP - stx2 screening assay
# Format: functional
# Parameters: scale not given: direction of the effect not stated beside the values
# condition.summary: 30 µM
parameter: Percent Effect (%)
Hi! Could you send only the number? It should be in %, unit omitted.

• CCNC(=O)c1nc2c(s1)CCCN2S(C)(=O)=O = -17.3

Form field Percent Effect for item `COc1ccnc(N2CCN(C(=O)CCc3nccs3)CC2)n1` on Shiga toxin 2 (Escherichia coli O157:H7) (UniProt P09385+P09386): -2.92

Fill in: Shiga toxin 2 (Escherichia coli O157:H7) (UniProt P09385+P09386) Percent Effect for `Cc1ncsc1CCC(=O)N1CCCC[C@H](N(C)C)C1` = 3.62

Entry `N#Cc1cc(NC(=O)c2ccsc2)ccc1N1CCC(O)CC1` : Percent Effect on Shiga toxin 2 (Escherichia coli O157:H7) (UniProt P09385+P09386) = -57.5

CS(=O)(=O)NCCCN1CCCC1c1ccccc1 (centres undefined) tested on Shiga toxin 2 (Escherichia coli O157:H7) (UniProt P09385+P09386) gave Percent Effect: 10

Recorded Percent Effect for `O=C(Cn1cnc(NC(=O)CC2CCCC2)n1)NCc1ccccc1` on Shiga toxin 2 (Escherichia coli O157:H7) (UniProt P09385+P09386) was 12.3

Response field Percent Effect (Shiga toxin 2 (Escherichia coli O157:H7) (UniProt P09385+P09386)) for item COCCN1CCC2(COCc3cnc(N4CCOCC4)nc32)C1 (centres undefined) : -12

Entry CN(C)c1nc2c(c(N3CCC(O)CC3)n1)CN(CC1CCNC1)CC2 (centres undefined) , tested on Shiga toxin 2 (Escherichia coli O157:H7) (UniProt P09385+P09386), has a reported Percent Effect of -11.1

The compound Cn1nnc2c1C(COCC1CC1)CN(C(=O)Cc1ccsc1)C2 (centres undefined) on Shiga toxin 2 (Escherichia coli O157:H7) (UniProt P09385+P09386): Percent Effect was -6.94

The observed Percent Effect for CC(C)n1ncc2c1NC(=O)CC21C(=O)Nc2c(Cl)cc(Cl)cc21 (centres undefined) when tested with Shiga toxin 2 (Escherichia coli O157:H7) (UniProt P09385+P09386) stands at 1.79

The compound CC1CCCCN1CCNC(=O)c1ccn(-c2ccc(F)cc2)n1 (centres undefined) on Shiga toxin 2 (Escherichia coli O157:H7) (UniProt P09385+P09386): Percent Effect was -12.3

Shiga toxin 2 (Escherichia coli O157:H7) (UniProt P09385+P09386) Percent Effect of `Cn1ccnc1CN1CCCN(C(=O)c2ccc(Cl)o2)CC1` is 17.7

Field Percent Effect (Shiga toxin 2 (Escherichia coli O157:H7) (UniProt P09385+P09386)), entry COc1ccc(F)cc1CN1CCCC(c2cc(C(N)=O)[nH]n2)C1 (centres undefined) : 1.05

Note to self: Percent Effect of `O=C(Nc1cnn(CCN2CCOCC2)c1)c1cc(F)ccc1F` with Shiga toxin 2 (Escherichia coli O157:H7) (UniProt P09385+P09386) was 21.3

Percent Effect on Shiga toxin 2 (Escherichia coli O157:H7) (UniProt P09385+P09386) for `O=C(CCc1ccccc1F)NS(=O)(=O)c1ccc2c(c1)OCCCO2` is -13.9

// compound Cn1cc(CN2CCOCC3(C2)CN(c2ccccc2)C(=O)CO3)cn1 (centres undefined) , assay Shiga toxin 2 (Escherichia coli O157:H7) (UniProt P09385+P09386), Percent Effect value: 4.18

Value (Percent Effect, Shiga toxin 2 (Escherichia coli O157:H7) (UniProt P09385+P09386)) for record Cc1cnn(C2CCCN(C(=O)C3=NN(C)C(=O)CC3)C2)c1 (centres undefined) = 3.74

Measured Percent Effect (Shiga toxin 2 (Escherichia coli O157:H7) (UniProt P09385+P09386)), entry COCCCNC(=O)CN1CCCC1c1c(C)nn(C)c1Cl (centres undefined) : -37

Fill in: Shiga toxin 2 (Escherichia coli O157:H7) (UniProt P09385+P09386) Percent Effect for `c1csc(-c2nc(CN3CCn4c(nnc4C4CC4)C3)co2)c1` = 1.36

Lab entry: Shiga toxin 2 (Escherichia coli O157:H7) (UniProt P09385+P09386) assay, compound O=C1CC(c2ccsc2)c2sc(C(=O)O)c(-c3ccccc3)c2N1 (centres undefined) , Percent Effect = 17.4
